Entries and their folding enthalpy values follow.
# assay-details: folding enthalpy; higher = less favourable; fluorescence melt of hairpins on a sequencing array, two-state fit
# assay-setup: sodium 0.088 M
Answer format: numeric, kcal/mol implied, no suffix.

// known answers, use as guide
GGAAAACGAAAGTTGTCC (((.(((....))).))); -26.1
GGTAGGCGAAAGCCAACC (((.(((....))).))); -28.1
GCCTCGCGAAAGCCACGC ((.(.((....)).).)); -6.05
GGTTCACGAAAGTGTACC (((.(((....))).))); -36.4
GTTGACCGAAAGGTAAAC (((.(((....))).))); -30.7

Respond only with folding enthalpy recorded for GATCGAATCCTCGATC ((((((....))))))
-41.1

State its folding enthalpy for this sequence: GGGCCCGAAAGGGCTCCC ((((((....)))..)))
-9.89

Specify folding enthalpy for GCGGGCGTCCGC ((((....)))) and stop.
-23.6

Complete the entry with folding enthalpy for GTGACGGGAAACCGTCGC (.(((((....))))).)
-24.8

Return the recorded folding enthalpy value; entry: GCTCGGCGAAAGCACAGC (((..((....))..)))
-12.2

Fill in reported folding enthalpy for this entry: GATCGAAACTTCGATC ((((((....))))))
-33.9
